Cited source for all entries: patent EP0517225A1

System: male BDF₁ mice
PROTOCOL SUMMARY: Acute toxicity test, LD50 i.p. (Litchfield-Wilcoxon method)
Type: in vivo
ASSAY CONTEXT: 6-7 week-old male BDF₁ mice, 18-22 g
Consider the following compounds and their measured LD₅₀ readings.
ATTRIBUTE MEASURED: LD₅₀ (mg/kg)

> print(dat)
                                   compound    study.system  unit.descriptor  observed.measurement
1  CCN1CCC(N)C1C.[Cl][Pt][Cl] (centres unmarked)  male BDF₁ mice            mg/kg                 60.95
2  CCC1C(N)CCN1C.[Cl][Pt][Cl] (centres unmarked)  male BDF₁ mice            mg/kg                 82.72
3  CC1C(N)CCN1C.[Cl][Pt][Cl] (centres unmarked)  male BDF₁ mice            mg/kg                 95.02
4  N.N.O=C([O-])C1(C(=O)[O-])CCC1.[Pt+2] [Carboplatin, reference compound]  male BDF₁ mice            mg/kg                 117.5
5  CCC1C(N)CCN1CC.[Cl][Pt][Cl] (centres unmarked)  male BDF₁ mice            mg/kg                113.81
